# Lookup of reported pIC50 keyed by entry
# experimental-target: α7^EM nAChR (Homo sapiens, UniProt P36544)
# Sequence (P36544 23-233 limits assumed): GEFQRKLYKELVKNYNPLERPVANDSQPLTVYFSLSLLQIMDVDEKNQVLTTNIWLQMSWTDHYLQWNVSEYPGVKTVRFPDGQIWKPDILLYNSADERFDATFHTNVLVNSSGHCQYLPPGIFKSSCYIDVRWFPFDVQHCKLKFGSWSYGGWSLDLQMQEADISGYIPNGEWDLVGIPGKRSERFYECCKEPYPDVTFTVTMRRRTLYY
# measurement-notes: cell-based
Positions of bridges follow the written chain, without caps; N, C: chain ends. Non-standard residues stand in square brackets, D forms with d. Residues, ends and D or L forms follow the SMILES beside them. pGlu = O=C1CC[C@@H](C(=O)O)N1
FYI, pIC50 means -log10 of a concentration in mol per litre.

Solved entries:
compound	pIC50
N=C(N)NCCC[C@@H]1NC(=O)[C@@H](NC(=O)CNC(=O)[C@@H]2CCCN2C(=O)[C@@H]2CCC(=O)N2)CSSC[C@@H](C(N)=O)NC(=O)[C@H](Cc2c[nH]c3ccccc23)NC(=O)[C@H](CCCNC(=N)N)NC(=O)[C@H](CCCNC(=N)N)NC(=O)[C@H](Cc2c[nH]c3ccccc23)NC(=O)[C@H](Cc2c[nH]c3ccccc23)NC1=O [[Q1Pyr, S8R]SS1] ([pGlu]PGCRWWRRWC-NH2; disulfide 4-11)	5.86
N=C(N)NCCC[C@@H]1NC(=O)[C@@H](NC(=O)CNC(=O)[C@@H]2CCCN2C(=O)[C@@H](N)CCC(N)=O)CSSC[C@@H](C(N)=O)NC(=O)[C@H](Cc2c[nH]c3ccccc23)NC(=O)[C@H](CCCNC(=N)N)NC(=O)[C@H](CCCNC(=N)N)NC(=O)[C@H](Cc2c[nH]c3ccccc23)NC(=O)[C@H](Cc2c[nH]c3ccccc23)NC1=O [[S8R]SS1] (H-QPGCRWWRRWC-NH2; disulfide 4-11)	6.18
N=C(N)NCCC[C@@H]1NC(=O)[C@@H](NC(=O)CNC(=O)[C@@H]2CCCN2C(=O)[C@@H](N)CCCNC(=N)N)CSSC[C@@H](C(N)=O)NC(=O)[C@H](Cc2c[nH]c3ccccc23)NC(=O)[C@H](CCCNC(=N)N)NC(=O)[C@H](CCCNC(=N)N)NC(=O)[C@H](Cc2c[nH]c3ccccc23)NC(=O)[C@H](Cc2c[nH]c3ccccc23)NC1=O [[Q1R, S8R]SS1] (H-RPGCRWWRRWC-NH2; disulfide 4-11)	6.87

Documented pIC50 of N=C(N)NCCC[C@@H]1NC(=O)[C@@H](NC(=O)CNC(=O)[C@@H]2CCCN2C(=O)[C@@H](N)CCC(=O)O)CSSC[C@@H](C(N)=O)NC(=O)[C@H](Cc2c[nH]c3ccccc23)NC(=O)[C@H](CCCNC(=N)N)NC(=O)[C@H](CCCNC(=N)N)NC(=O)[C@H](Cc2c[nH]c3ccccc23)NC(=O)[C@H](Cc2c[nH]c3ccccc23)NC1=O [[Q1E, S8R]SS1] (H-EPGCRWWRRWC-NH2; disulfide 4-11) : 6.44
